test system: ATP; assay: switch fluorescence ratio, 500 uM ATP over buffer (Cy3 cluster intensity, sum of 5 cycles each) (fold (ratio)); higher = stronger signal-on switching upon ATP binding; sequences stand for … in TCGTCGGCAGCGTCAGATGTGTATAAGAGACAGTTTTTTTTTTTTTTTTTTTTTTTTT…TC; conditions: aptamer strand: ATP DNA aptamer (quencher-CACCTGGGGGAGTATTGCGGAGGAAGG + anchor), 100 nM annealed; ATP concentration: 500 uM;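 also: ATP exposure 15 min at 22 °C before imaging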
switch fluorescence ratio: recorded values
Please reply with the value in numeric form only.

- TGGGAAAAGG: 1.16
- CGCATTGGT: 1.31
- GATTGTGCTG: 0.988
- GAGTTCTTG: 0.986
- AAGGGGTTGC: 1.03
- AGTGTTTAAG: 1.04

# evaluate next
Problem: Using known records, supply switch fluorescence ratio for TGCCAGAAGG
Solution: 1.02

----------
switch fluorescence ratio: recorded values
system: ATP; assay: switch fluorescence ratio, 500 uM ATP over buffer (Cy3 cluster intensity, sum of 5 cycles each) (fold (ratio)); higher = stronger signal-on switching upon ATP binding; sequences stand for … in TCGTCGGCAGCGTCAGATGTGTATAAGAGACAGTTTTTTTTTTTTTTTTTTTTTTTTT…TC; conditions: aptamer strand: ATP DNA aptamer (quencher-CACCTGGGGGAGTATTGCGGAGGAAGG + anchor), 100 nM annealed; ATP concentration: 500 uM;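 also: ATP exposure 15 min at 22 °C before imaging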
Please reply with the value in numeric form only.

Solved entries:
• TGGTAAACGG = 0.988
• CTCGGGGGTA = 0.963
• GAAAATGCAT = 0.99
• AAAGAATAAA = 1.02
• TTCTGCCCC = 1.01

# evaluate next
Problem: Using known records, supply switch fluorescence ratio for GCTCGTATTA
Solution: 1

----------
system: ATP; experiment: switch fluorescence ratio, 500 uM ATP over buffer (Cy3 cluster intensity, sum of 5 cycles each) (fold (ratio)); higher = stronger signal-on switching upon ATP binding; sequences stand for … in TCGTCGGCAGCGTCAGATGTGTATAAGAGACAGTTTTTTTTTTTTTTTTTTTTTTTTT…TC; details: aptamer strand: ATP DNA aptamer (quencher-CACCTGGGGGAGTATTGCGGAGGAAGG + anchor), 100 nM annealed; ATP concentration: 500 uM;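 also: ATP exposure 15 min at 22 °C before imaging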
reported_endpoint: switch fluorescence ratio
Please reply with the value in numeric form only.

• GATGGGGGGC = 1.01

# evaluate next
Problem: Using known records, supply switch fluorescence ratio for CCTGTTGGTT
Solution: 0.955

----------
test system: ATP; experiment: switch fluorescence ratio, 500 uM ATP over buffer (Cy3 cluster intensity, sum of 5 cycles each) (fold (ratio)); higher = stronger signal-on switching upon ATP binding; sequences stand for … in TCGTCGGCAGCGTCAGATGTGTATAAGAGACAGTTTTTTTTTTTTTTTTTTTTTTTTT…TC; details: aptamer strand: ATP DNA aptamer (quencher-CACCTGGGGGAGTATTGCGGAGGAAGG + anchor), 100 nM annealed; ATP concentration: 500 uM;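 also: ATP exposure 15 min at 22 °C before imaging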
switch fluorescence ratio: recorded values
Please reply with the value in numeric form only.

Solved entries:
* AGCAAATTCT | 1.16
* GTGGTAAACG | 1
* TTTTGTTTAG | 0.992
* TTTGCCAGAC | 1.23
* CTGCTTTGTC | 0.941

Problem: Using known records, supply switch fluorescence ratio for ATTAAGAGGT
Solution: 1.03

Problem: Using known records, supply switch fluorescence ratio for AGCGGTCGGC
Solution: 1.04

----------
test system: ATP; assay: switch fluorescence ratio, 500 uM ATP over buffer (Cy3 cluster intensity, sum of 5 cycles each) (fold (ratio)); higher = stronger signal-on switching upon ATP binding; sequences stand for … in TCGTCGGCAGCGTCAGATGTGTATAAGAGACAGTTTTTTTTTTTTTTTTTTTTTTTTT…TC; settings: aptamer strand: ATP DNA aptamer (quencher-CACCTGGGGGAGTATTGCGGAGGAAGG + anchor), 100 nM annealed; ATP concentration: 500 uM;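 also: ATP exposure 15 min at 22 °C before imaging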
Label 1 for high-side switch fluorescence ratio (at or above 1) and 0 for low-side switch fluorescence ratio (below it).

These recorded examples may help you get a feel for the data.
- CCTGAGATAC: 1
- TGTATTAGTA: 0

Problem: Check if switch fluorescence ratio >= 1 (inclusive). Item: GAGGGCAGAC
Solution: 1

----------
tested on: ATP; experiment: switch fluorescence ratio, 500 uM ATP over buffer (Cy3 cluster intensity, sum of 5 cycles each) (fold (ratio)); higher = stronger signal-on switching upon ATP binding; sequences stand for … in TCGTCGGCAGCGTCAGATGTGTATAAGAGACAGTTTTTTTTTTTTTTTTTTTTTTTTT…TC; details: aptamer strand: ATP DNA aptamer (quencher-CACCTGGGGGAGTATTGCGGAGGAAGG + anchor), 100 nM annealed; ATP concentration: 500 uM;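 also: ATP exposure 15 min at 22 °C before imaging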
reported_endpoint: switch fluorescence ratio
Please reply with the value in numeric form only.

• TGTTAGTTAC = 1.03

Problem: Please tell me the measured switch fluorescence ratio for CGTACAGATA ; system: ATP.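 Also: ATP exposure 15 min at 22 °C before imaging.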
Solution: 0.994

----------
test system: ATP; assay: switch fluorescence ratio, 500 uM ATP over buffer (Cy3 cluster intensity, sum of 5 cycles each) (fold (ratio)); higher = stronger signal-on switching upon ATP binding; sequences stand for … in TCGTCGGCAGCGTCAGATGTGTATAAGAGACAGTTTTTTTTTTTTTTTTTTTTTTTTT…TC; conditions: aptamer strand: ATP DNA aptamer (quencher-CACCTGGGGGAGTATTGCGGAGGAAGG + anchor), 100 nM annealed; ATP concentration: 500 uM;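 also: ATP exposure 15 min at 22 °C before imaging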
reported_endpoint: switch fluorescence ratio
Please reply with the value in numeric form only.

Solved entries:
- GCGTTTGGGG: 1.01
- GGGTGTCAGC: 1.02
- GATCGAGGGA: 1.04
- AGTTAACTTT: 1.02
- TTTTACCCGG: 1.04

Problem: Using known records, supply switch fluorescence ratio for AAAGAGGGTT
Solution: 1.02

Problem: Using known records, supply switch fluorescence ratio for AATTTACACT
Solution: 1.06

Problem: Using known records, supply switch fluorescence ratio for GTCGGGTACA
Solution: 1.01

Problem: Using known records, supply switch fluorescence ratio for AAGTTTGTTT
Solution: 0.99

Problem: Using known records, supply switch fluorescence ratio for GGCTGTTTTT
Solution: 0.962

----------
tested on: ATP; assay: switch fluorescence ratio, 500 uM ATP over buffer (Cy3 cluster intensity, sum of 5 cycles each) (fold (ratio)); higher = stronger signal-on switching upon ATP binding; sequences stand for … in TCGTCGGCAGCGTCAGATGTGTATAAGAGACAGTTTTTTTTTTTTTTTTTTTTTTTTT…TC; conditions: aptamer strand: ATP DNA aptamer (quencher-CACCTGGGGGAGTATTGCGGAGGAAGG + anchor), 100 nM annealed; ATP concentration: 500 uM;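 also: ATP exposure 15 min at 22 °C before imaging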
reported_endpoint: switch fluorescence ratio
Please reply with the value in numeric form only.

Problem: Using known records, supply switch fluorescence ratio for ATTGGTCTGC
Solution: 1.02

Problem: Using known records, supply switch fluorescence ratio for GACAGAGGTT
Solution: 1

Problem: Using known records, supply switch fluorescence ratio for ACGGTATTGG
Solution: 1.09

Problem: Using known records, supply switch fluorescence ratio for CGTAGGTGCA
Solution: 1.05

Problem: Using known records, supply switch fluorescence ratio for AAAATTAAGA
Solution: 0.982

Problem: Using known records, supply switch fluorescence ratio for TGTGTTGGGG
Solution: 0.969

Problem: Using known records, supply switch fluorescence ratio for TAAGTAGAG
Solution: 0.982

Problem: Using known records, supply switch fluorescence ratio for ACGCGGTTTT
Solution: 1.02

----------
tested on: ATP; experiment: switch fluorescence ratio, 500 uM ATP over buffer (Cy3 cluster intensity, sum of 5 cycles each) (fold (ratio)); higher = stronger signal-on switching upon ATP binding; sequences stand for … in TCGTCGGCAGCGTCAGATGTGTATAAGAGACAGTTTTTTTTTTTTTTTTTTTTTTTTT…TC; conditions: aptamer strand: ATP DNA aptamer (quencher-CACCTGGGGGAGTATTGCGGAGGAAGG + anchor), 100 nM annealed; ATP concentration: 500 uM;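 also: ATP exposure 15 min at 22 °C before imaging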
reported_endpoint: switch fluorescence ratio
Please reply with the value in numeric form only.

Solved entries:
• TTAGGAGGGA = 0.995
• TTAGGCGAGG = 1.08
• TTTGCATTCA = 0.999
• GGTTCATGAT = 0.993
• GTGGTCTCCG = 0.982

Problem: Using known records, supply switch fluorescence ratio for GTGTGTGGGC
Solution: 1.04

Problem: Using known records, supply switch fluorescence ratio for GCAGGAAGGC
Solution: 1.09

Problem: Using known records, supply switch fluorescence ratio for GGGTAGGTG
Solution: 1.13

Problem: Using known records, supply switch fluorescence ratio for TTGACAGGGT
Solution: 1.03

----------
test system: ATP; assay: switch fluorescence ratio, 500 uM ATP over buffer (Cy3 cluster intensity, sum of 5 cycles each) (fold (ratio)); higher = stronger signal-on switching upon ATP binding; sequences stand for … in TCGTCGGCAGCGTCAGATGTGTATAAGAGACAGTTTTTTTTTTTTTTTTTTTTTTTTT…TC; conditions: aptamer strand: ATP DNA aptamer (quencher-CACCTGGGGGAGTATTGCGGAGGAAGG + anchor), 100 nM annealed; ATP concentration: 500 uM;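 also: ATP exposure 15 min at 22 °C before imaging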
switch fluorescence ratio: recorded values
Please reply with the value in numeric form only.

Solved entries:
* TATTAGGCAT | 1.15
* GACTACTAGC | 1.05
* ACTGGGCCTT | 1.03

Problem: Using known records, supply switch fluorescence ratio for ATTCTTCGC
Solution: 1.06

Values compiled from the supplement of paper PMC10126150.
